- experiment summary: Cmax in Beagle dog at 30 mg/kg, po administered as spray dried dispersion
- Assay type: ADME, organism-based, Canis lupus familiaris
- Design: dose 30 mg/kg, route oral
- condition summary: in vivo
measured quantity: Cmax (ng/mL)
Form entry: value (ng/mL) — number only.

Would you mind telling me what Cmax value was observed for `Cc1c(Oc2ccc(-n3cnnn3)cc2F)ncnc1N1C2CC3CC1CC(C2)N3C(=O)OC1(C)CC1` ? 3750

----------
- experiment summary: Tmax in Sprague-Dawley rat at 3 mg/kg, po dosing in 0.5% methylcellulose
- Assay type: ADME, organism-based
- Parameters: dose 3 mg/kg, route oral
- condition summary: in vivo
measured quantity: Tmax (h)
API: value field is a number in h; no unit string.

Which Tmax is listed for `Cc1c(Oc2ccc(-n3cnnn3)cc2F)ncnc1N1C2CC3CC1CC(C2)N3C(=O)OC1(C)CC1` ? 3
